- Tested on: 242566-281-R-J2-PDC complex spheroid viability;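 also: spheroids exposed to compounds for 7 days before readout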
- measurement.description: Anticancer human tumor 242566-281-R-J2-PDC patient-derived pancreatic carcinoma cell line growth inhibition [CLK]; active = viability on the fitted dose curve at most 10% of control; inactive = the rest
- assay.conditions: second compound 1 µM; first compound 0.01 µM
Field 'call' accepts active, inactive

// below: answered molecules
{"columns": ["molecule", "category.label"],
 "data": [
  ["CCc1c2c(nc3ccc(O)cc13)-c1cc3c(c(=O)n1C2)COC(=O)[C@]3(O)CC + CN1CCN(c2cc(C(=O)Nc3cc4cc(-c5cnn(C)c5)ccc4cn3)ccn2)CC1", "active"],
  ["CCN1CCN(Cc2ccc(Nc3ncc(F)c(-c4cc(F)c5nc(C)n(C(C)C)c5c4)n3)nc2)CC1 + CNC(=O)c1ccc(Nc2nc(OC3CCCC3)c3c(-c4ccc5nc(C)oc5c4)c[nH]c3n2)c(OC)c1", "inactive"],
  ["COc1c(OCCCN2CCOCC2)ccc2c3n(c(=NC(=O)c4cnc(N)nc4)nc12)CCN3 + CN1CCN(c2cc(C(=O)Nc3cc4cc(-c5cnn(C)c5)ccc4cn3)ccn2)CC1", "active"],
  ["COc1c(OCCCN2CCOCC2)ccc2c3n(c(=NC(=O)c4cnc(N)nc4)nc12)CCN3 + CNC(=O)c1ccc(Nc2nc(OC3CCCC3)c3c(-c4ccc5nc(C)oc5c4)c[nH]c3n2)c(OC)c1", "inactive"]
]}

Exam item: Can you look up the reported call for CCc1c2c(nc3ccc(O)cc13)-c1cc3c(c(=O)n1C2)COC(=O)[C@]3(O)CC + CNC(=O)c1ccc(Nc2nc(OC3CCCC3)c3c(-c4ccc5nc(C)oc5c4)c[nH]c3n2)c(OC)c1 for me?
Marked response: inactive
